target: Torsin-1A-interacting protein 1 (Homo sapiens) (UniProt Q5JTV8); experiment: LAP1 binders from COS7 cell lysate, primary screen, small-molecule microarray, 635/667 nm fluorescence (AID 1116); settings: COS7-hLAP1 lysate binding, 635 nm fluorescence, higher = more signal
Sequence (Q5JTV8 whole entry, looked up): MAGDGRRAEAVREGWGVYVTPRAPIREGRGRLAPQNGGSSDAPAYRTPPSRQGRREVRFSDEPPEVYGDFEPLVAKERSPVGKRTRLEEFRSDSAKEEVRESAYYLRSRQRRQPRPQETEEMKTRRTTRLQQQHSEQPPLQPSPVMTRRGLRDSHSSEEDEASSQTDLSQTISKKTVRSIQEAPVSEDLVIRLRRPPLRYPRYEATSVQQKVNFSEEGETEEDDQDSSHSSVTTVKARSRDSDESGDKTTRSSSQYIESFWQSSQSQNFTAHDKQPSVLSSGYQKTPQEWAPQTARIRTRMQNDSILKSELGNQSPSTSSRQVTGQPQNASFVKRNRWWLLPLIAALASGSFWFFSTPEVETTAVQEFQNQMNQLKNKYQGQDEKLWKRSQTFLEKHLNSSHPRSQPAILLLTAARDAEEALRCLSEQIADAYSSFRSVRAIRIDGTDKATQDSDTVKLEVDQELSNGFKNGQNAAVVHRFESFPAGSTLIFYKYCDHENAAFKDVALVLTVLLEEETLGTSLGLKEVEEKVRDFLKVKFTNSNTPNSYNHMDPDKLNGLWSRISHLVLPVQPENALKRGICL
Hi there, I'd appreciate the recorded composite z-score for every entry that follows.
Answers are plain numbers.

Some compounds with recorded composite z-score:
- COCCOC(=O)N1C(=O)[C@@]2(c3cc(C#CC4=CCCCC4)ccc31)[C@H](C(=O)NC[C@H](O)c1ccccc1)[C@H]1C(=O)O[C@H](c3ccccc3)[C@H](c3ccccc3)N1[C@@H]2c1ccc(OCCO)cc1: 1
- COc1ccc(-c2cc3c(c(-c4ccccc4)n2)[Si](C(C)C)(C(C)C)O[C@H]3c2ccccc2)cn1: -0.126

# evaluate next
Fill blank: measured composite z-score of the compound NC(=O)NCC#Cc1ccc2c(c1)[C@]1(C(=O)N2)[C@H](C(N)=O)[C@H]2C(=O)O[C@H](c3ccccc3)[C@H](c3ccccc3)N2[C@@H]1c1ccccc1OCCO is ____.
0.808

###

molecular target: Calmodulin-1 (Homo sapiens); test: calcium-bound CALM1 binders on microarrays, profiling panel, artefact control for SMM control-protein annotation, biochemical, small-molecule microarray, Cy5-labelled CALM1, plus calcium (AID 1112); settings: Cy5-CALM1 binding fluorescence, higher = more signal;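 also: score merges spot fluorescence with signal to noise from triplicate slides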
I'd appreciate it if you could supply composite z-score values for the items below.
One number for each entry.

* CN(C)CCCC[C@@H]1NC(=O)[C@@H]2C[C@H](C(=O)NCCCCCNC(=O)CS)[C@H](c3ccc(O)cc3)N2C1=O | 1.25
* COc1cc2c(cc1OC)CN(C(=O)[C@H]1[C@@H]3C(=O)O[C@@H](c4ccccc4)[C@@H](c4ccccc4)N3[C@@H](c3ccc(O)cc3)[C@]13C(=O)Nc1ccc(C#CC4(O)CCCCCC4)cc13)CC2 | 1.2
* CCN1C(C)=C(C(=O)OC)[C@@H](c2ccccc2)N2C(=O)[C@](O)(C(=O)OC)[C@@H](c3ccccc3)C(C(C)=O)=C12 | -0.0342
* O=[N+]([O-])c1ccc(C[n+]2ccc3ccc(O)cc3c2)o1 | 0.287
* CCC1=C2CN(Cc3ccccc3Br)[C@@H]([C@@H](O)Cc3ccccc3)C2C=CCC1 (stereo partly drawn) | -0.419

// each compound listed below needs its composite z-score
1. CC(=O)NCCCC[C@@H]1NC(=O)[C@H]2C[C@@H](C(=O)NCCCCCCN(C)C)[C@@H](c3ccc(O)cc3)N2C1=O
2. CCCC=C(CCC)[C@@H](NC(=O)c1ccccc1)c1ccccc1
3. O=C1O[C@H](c2ccccc2)[C@H](c2ccccc2)N2[C@H]1[C@@H](C(=O)NC[C@H](O)c1ccccc1)[C@]1(C(=O)Nc3ccc(C#CC4=CCCCC4)cc31)[C@H]2c1ccc(OCCO)cc1
4. COc1cc(CO)cc(I)c1O[C@H]1C=C(C(=O)NCCO)C[C@@H](N(CC2CCCCC2)C(=O)c2cc3ccccc3oc2=O)[C@@H]1O
5. O=C(NCc1ccccc1)[C@@]1(Cc2ccccc2)COC(c2ccc(OCCCO)cc2)=N1
6. COC(=O)[C@@]1(Cc2ccccc2N=[N+]=[N-])N=C(c2ccc(OCCCO)cc2)O[C@H]1c1ccccc1CN=[N+]=[N-]
7. C=C(CCCC)/C(=C/C[C@@H](OC(=O)c1ccncc1)c1cccc(OCCO)c1)c1cc(C(=O)OC)ccc1OC

1: -1.53; 2: 1.09; 3: 0.385; 4: -0.857; 5: 0.687; 6: 0.0128; 7: -0.732
